experiment: soluble on expression in E. coli; label from the status in PepcDB or PDB records
OUTCOME MEASURE: soluble on expression in E. coli

Worked cases, answers included:
>>> test_value("MSNPILTSTLIILRGNSSSGKTTIAKQLQEHFGQGTLLVSQDVVRRDMLRVHDTMGNLSHDLLFEITKYGKGKCEFVILEGILNSHRYGEMLKELIRYFDENAFAYYFDLSLEETIRRHNTRDKRHEFGEDSLQKWYNPHDTIKVATETIFTDNFTQKDIFDAILNDVAIEKQALEHHHHHH")
"soluble"
>>> test_value("MSLINRKDALPITRQCRLLDLSRSGFYYTPRPVSAKDLELMRQIDEIHLAFPFYGSRKIRDELWARKHNVGLDKVRRLMRRMGIEALYVKPRLSLSYPEHVKYPYLLRRLEINRANQVWITDITYIPMAKGFCYLVAIMDEGHHHHHH")
"not soluble"
>>> test_value("MGSDKIHHHHHHTVPTFYLFGLLIMHNAAQHNYVISLTTEQKRRKHITEEFGKQNIPFEFFDAITPDIIEETAKKFNITLDRSPKAKLSDGEIGCALSHIVLWDLALENNLNYINIFEDDIHLGENAKELLEIDYISDDIHVLKLEANGKMFFKQPKSVKCDRNVYPMTVKQSGCAGYTVTAKGAKYLLELVKNKPLDVAVDSLVFEDFLHFKDYKIVQLSPGICVQDFVLHPDNPFESSLQEGRDRVHGNQRKSSILEKIKNEFGRVKIKMFGKQVPFK")
"not soluble"
>>> test_value("MGSDKIHHHHHHMHHNTWKGIILQKQGLLKPQSVQQICQNLNGLQAQFQPYVHIGFRNRMTNEAFQNQDWQASLTRQWSLRRTVHAYLKSEIPLYIHEGRMASVDYLETVSWDGALPQVKKKFYQVILEALETGPMTREELKILCRAENIGVEEEKQVFNAWGGLLRYMVERGEIYQEYGVKRFHRLRDFQPLPKKEAELEIARRYFTGFGPVSLADARYYFKENKSTVLKWMEQLDLKTVEVAGEERFYLGELEEAELPDCLFVAGFDQLLLGYEKKANPFFNPKYIRNIYTLTGIVKPVVFYKGRFVATWKRDKGTILLDIFEDITQQEEKELEHYRQMFEKIL")
"not soluble"
>>> test_value("MSLNYEGRVLVVDDVNDIRMLVGHMVQNSGLKVEYGRNGLEALDKVTDAINDGDPYDLVLIDIHMPVMNGSEAIKQIRSSGIHFPVVAMTAATMKGVRDQLISQGFTNVLEKPINHDALLKVLDAHLTAVSEPIQVETTDAHDNDASQQDESSERQHFLLVEDDVDAADITALLLESLGIDVHVAHSGQECMDVFNQRNDWSKVLMDLNLPDASGLNLAKEIHKTSPQLELVLLSGEEPDAQSMADADITKFILKPINKKVLSDLVEEGHHHHHH")
"soluble"

// next entry
Would you kindly share the measured soluble on expression in E. coli for MNSSTENVTLKLKSEQLDIAKQWIQTEDVKAYKETSSIQKTFTIPVEREELVIEKIPTASDDKKEVIRIPLSEEEVNFSKHRIILEDVSIYKNQIEDVRHIEETLKKENPKIETFGNAKVIKKLEHHHHHH ?
not soluble

###

assay: soluble on expression in E. coli; label from the status in PepcDB or PDB records
OUTCOME MEASURE: soluble on expression in E. coli

>>> test_value("MQRHERIRFFITEQCRNLDPTYRNYMYPKQILLGDVPLPLLPNSSLTFRVNSAEKICFRIRLSIDDSQEPLNIGIPLSQVESVSIKDHSAKHPEPALLFLLKKGALERFIQVCNPLLGELHTYHGRKRKMLTYLTVILGMDPHLEQPNPVYCRVSLMANKFTFPFGTAKKILLKDLPIMWQEVLDKQYDRRLKTGIHHDRERMAEMDDEAWDWLMSFLNVKWDKCPSGGRWFVRDKDEILQSNEKLHHKMIYWLNQ")
"not soluble"
>>> test_value("MAHHHHHHMPLLTRGQRRLLEYVAHDGGTKGLKRRRMEDVAPVLHKRKQKWTHKFTTKTASADASLAEVPLSSEVLEFLREYCPKVPRKLRQSQLRVISDLSGAFGGNSEKEEGETFTVKRVELKENAEVFAVVALAALQRRALWSGSTPQGASLFVLVETDADAAALAAHMGNTYKMTRTLVLDGSRFPTFPAVEKDDAATATTLAERTALVIASLQAFVTVDARSAIWKFIGAYAIWLKSSKPPALLQEMADGTRSELEENCAGSGGVVWDMPRWLLSLLHRESPSLHP")
"not soluble"

Cited source for all entries: the DeepSol protein solubility set
